# Activity annotations
Tested on: Sclerotinia sclerotiorum
Assay: Inhibition of Sclerotina sclerotiorums brassinin glucosyl transferase assessed as percent relative activity in relative to brassinin at 0.30 mM
Parameters: scale not given: the % may be the effect or the level left
Value expressed in %; do not type the unit.

Would you mind telling me what Activity value was observed for CSC(=S)NCc1csc2ccccc12 ?
81

Would you mind telling me what Activity value was observed for Fc1ccc2c(-c3nccs3)c[nH]c2c1 ?
66

Would you mind telling me what Activity value was observed for CSC(=S)NCc1cc2ccccc2o1 ?
43

Would you mind telling me what Activity value was observed for COc1ccn2ncc(CNC(=S)SC)c2c1 ?
98

Would you mind telling me what Activity value was observed for c1ccc2c(-c3nccs3)c[nH]c2c1 [CAMALEXIN] ?
63

Would you mind telling me what Activity value was observed for Fc1ccc2c(-c3ccccc3)c[nH]c2c1 [6-FLUORO-3-PHENYLINDOLE] ?
23

Would you mind telling me what Activity value was observed for CSC(=S)NCc1coc2ccccc12 ?
50

Would you mind telling me what Activity value was observed for c1ccc(-c2coc3ccccc23)cc1 ?
53

Would you mind telling me what Activity value was observed for CC(=O)Nc1cnc2ccccc2c1 ?
100

Would you mind telling me what Activity value was observed for c1ccc(-c2c[nH]c3ccccc23)cc1 [3-PHENYLINDOLE] ?
23

Would you mind telling me what Activity value was observed for c1ccc(-c2cc3ccccc3[nH]2)cc1 ?
39

Would you mind telling me what Activity value was observed for CSC(=S)NCc1c[nH]c2ncccc12 ?
68

Would you mind telling me what Activity value was observed for COC(=O)c1cnn2ccc(OC)cc12 ?
100
